Here, each record is paired with measured apparent KD of K4 kissing-loop reporter data.
- System: K4 kissing-loop RNA reporter
- test details: apparent KD of K4 kissing-loop reporter; higher = weaker reporter binding
- protocol conditions: Eterna round: R107; input ligand: none

| biopolymer sequence | apparent KD of K4 kissing-loop reporter (nM) |
| --- | --- |
| GUCUGCGUCUCGGCCGCCACUCACUAGUGAUGUUAGUAAGGAGCGACUAGAGAAGUCCAGUUAAUGAGGACCGGGAGAAGCUCUU [Exclusion Tryptophan B GF 3] | 137 |
| AAAAUAAACCAGUGAUGUUGGUGUCCAGAUACCAGCGAUAAAAUUCGCCCUUGGCAGCUGUGGACGUACAAAAUAAGUACGUCCU [MatMod 3 - Jieux - Same State - Theophylline A] | 837 |
| AACUGUCAAGGACAACAUUACUGCAGUGAUACCAGCAUCGAAAGAUGCCCUUGGCAGCACUAACUUGCAGUGAUGUUGCAAGUAA [BrourdMod 4 - Jieux - Exclusion - Theophylline A] | 256 |

* * *

- Test system: MS2 coat protein
- test details: apparent KD of MS2 coat protein; designed switch direction (-1 OFF switch, 1 ON switch): -1; higher = weaker reporter binding
- protocol conditions: input ligand: FMN 200 uM

| biopolymer sequence | test system | measurement units | apparent KD of MS2 coat protein |
| --- | --- | --- | --- |
| GAUUAACAUGAGGAUCACCCAUGUGAGGAUAUGGACUUGCCCACUUACCCUUUAGAGUCUAGAAGGCGCAUCUC [1986#30] (Eterna round: R97, puzzle: Exclusion 1) | MS2 coat protein | nM | 28.7 |
| CUGUAGCUAUGAGGAUAUGCCACAAAAGUAGUUGCAGAAGGCAUCCCUACCCAGUAAGAACAUGAGGAUCACCCAUGUGAUCUG [Eternabot solution 43] (Eterna round: R96, puzzle: Exclusion NG 1) | MS2 coat protein | nM | 71.6 |
| AAGACACAUGAGGAUCACCCAUGUGAGGAUAUUCGAUGCUAAGCGUAAGCUUAGUAUCGGAGAAGGCACAAAGG [Salishxclusion 6 - Jieux - Exclusion 1] (Eterna round: R97, puzzle: Exclusion 1) | MS2 coat protein | nM | 128 |
| GCAGCAUAGUCCAAAUAGGACAUACAUGAGGAUCACCCAUGUCAGGAUAUGGUCUGGAUUACAGGCCAGAAGGGACAAAGCUGC [Eli exng3 - 001] (Eterna round: R96, puzzle: Exclusion NG 3) | MS2 coat protein | nM | 30.4 |
| ACAUGCUAGUAGGAUAUCGUACGCCGAAUAGUAUGAGAAGGAUUGACAUGAGGAUCACCCAUGUGAUGCCUGAA [Quveedes] (Eterna round: R97, puzzle: Exclusion 6) | MS2 coat protein | nM | 22 |

* * *

- System: MS2 coat protein
- test details: apparent KD of MS2 coat protein; designed switch direction (-1 OFF switch, 1 ON switch): 1; higher = weaker reporter binding
- protocol conditions: input ligand: FMN 200 uM

| biopolymer sequence | test system | apparent KD of MS2 coat protein (nM) |
| --- | --- | --- |
| UUACUCAUGUAAGGAUAUGCAGCCGAAACGGCUGCAGAAGGUACUAUAAUACAUGAGGAUCACCCAUGUCAAAAUAAUUAAAAC [Mat - Same State NG 1 - JL mod - D72] (Eterna round: R96, puzzle: Same State NG 1) | MS2 coat protein | 34.8 |
| GUUCGGAAUCGAGCUGACAUGAGGAUCACCCAUGUUAGUGGGAAGGAUAUGGUACAGAAACUGUACCAGAAGGUCCUGCUGUCU [MOD2 Omei's SS(NG) 3 AV9] (Eterna round: R96, puzzle: Same State NG 3) | MS2 coat protein | 38.2 |
| GCUGGAAACCACAUGAGGAUCACCCAUGUUCCGGAAACGGCACAGGAUAUCUGUCCGAAAAGGUCAGAGAAGGGUGUAACCAGC [Fiskers NG3ss - 86] (Eterna round: R96, puzzle: Same State NG 3) | MS2 coat protein | 190 |
| GUUACAUGAGGAUCACCCAUGUGUGUGUGGGAGUGAGUGGCUUAGGAUAUCUAUGAUUUUAGUUAAGAGAAGGAGGAUUGCUGU [SS-NG3-LRO07] (Eterna round: R96, puzzle: Same State NG 3) | MS2 coat protein | 275 |

* * *

- Test system: MS2 coat protein
- test details: apparent KD of MS2 coat protein; higher = weaker reporter binding
- protocol conditions: Eterna round: R107; input ligand: tryptophan 2.4 mM
Label 1 when apparent KD of MS2 coat protein >= 100 nM; otherwise -1.

| biopolymer sequence | class name |
| --- | --- |
| GGGUACAUCGCGGCCGCCACUCAUGUAAAUGCAUGAGGAUCACCCAUGUCGAUGGAGACAUCGGAGAGGACCGGGUGAUGUACCG | 1 |
| GGUCCCGUCGGAAGGAGCGACAUGAGGAUCACCCAUGUCUCCCGUUAUGGGAGUUCUUUAGGUCAGGUAGGUCGCCGGCGGGAGC [#1 Exclusion - Arginine B Attempt #15 (Inspired by Omei)] | -1 |
| GGAUUACGAAAGUAGUCCUCAAGUUCGAGACGAGGACCGGUACGGCCGCCACUCGAACAUGAGGAUCACCCAUGUAGCGAAAGCU [Tryptophan A 22] | 1 |
| ACCCUAGCGAUCGCUCGCUAGGGUGCGGAUACCAGCGAGGUCCAUCGCCCUUGGCAGCCGAACAUGAGGAUCACCCAUGUCGGUA [#1 Same State - Theophylline A Attempt #19 (HarryS)] | -1 |
| ACCUACACGGAGACGUGUAGGAGUAAUGAUACCAGCAUGGAGACAUGCCCUUGGCAGCGUUACAUGAGGAUCACCCAUGUACGUU [ETHA #3] | -1 |
| ACAUGAGGAUCACCCAUGUGAUGGCGCGAUACCAGCUGAUCCCGUGGCCCUUGGCAGCGUCCGGUGUGGUCCGGCGGGUGGGACG [khkmullin] | -1 |
| UGAUUGAACGGAAGGAGCGUGAAGAGAGAGAAACAUGAGGAUCACCCAUGUAGAGAGAGAUCACAGGUAGGUCGCCGAGAGAUUG [11.C] | -1 |
| GGAUAGGACACGGCCGCCACUAGCUAGGAUACUAGCAACAUUUGGGUACAUGAGGAUCACCCAUGUAGGACCGGGUGUCCUAUCG | 1 |
| CCAUAGCUAGGAAGGAGCGCAUACUUCACAUGAGGAUCACCCAUGUCGAGACGUGAGUCAGUGCAGGUAGGUCGCCUAGCUAUGG [Same State - Arginine B (Freestyle 29)] | -1 |
| CGCCACAUGAGGAUCACCCAUGUAAUGGCGCGAGGACCGGUACGGCCGCCACUCGCCUGGCAGUGAGCGCAUGCGGCCUGGGUAU [Exclusion Tryp A GF9] | -1 |
| ACAUGAGGAUCACCCAUGUUCCUCAUUGAUACCAGUGAAUUUAGACGCCCUUGGCAGCGAGUUUUUUUAUAAGAUUUUUUUUUUU [6.I] | 1 |
| CGCAACCCUAAGGGAUUGUGGUUAUUAGAUACCAGUAUGAUGCAAUACCCUUGGCAGCUAAUACAUGAGGAUCACCCAUGUUGCG [Th A Ex t2] | -1 |

* * *

# Lookup of reported apparent KD of K4 kissing-loop reporter keyed by entry
- System: K4 kissing-loop RNA reporter;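 further: bound reporter read as fluorescence of individual clusters on recovered sequencing chips by microscopy, with normalized cluster intensities fitted with a binding model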
- test details: apparent KD of K4 kissing-loop reporter; higher = weaker reporter binding
- protocol conditions: Eterna round: R107; input ligand: tryptophan 2.4 mM

| biopolymer sequence | apparent KD of K4 kissing-loop reporter |
| --- | --- |
| GGAGUUACCUGGGAUACCAGUCGGAGACCCAGAGCUCGGAGUGAUGUUCUGGGAUGUUUCGGCCCUUGGCAGCUCUGGGUCUCCC [#2 Exclusion - Theophylline B Attempt #8 (HarryS)] | 675 nM |
| CCGGCCCAGCCGGAUACCAGUGCGCCGCAGGGAACGGCGGGCCCAGAGUGAUGUUCGGGACACCCUUGGCAGCCGCCUGGGUCCU [#2 Same State - Theophylline B Attempt #29 (HarryS)] | 864 nM |
| ACACUAUCGUCAUAGACGGUAGUGAAAUGUGAGGAUAUGAGUGAUGUUAGAAGGCACAAAGACUGUAUCGAAUAGAUACAGUCAA [FmnA 6 #K4BetweenAptamer #OpenEnded] | 120 nM |
| CGAGUGAUGUUCGAAGAGUUGUUAAGCGAUACCAGCUAGGAAACUGGCCCUUGGCAGCGUAAUAAAUAAAUAAAUAAAUGAUCAC [whbob_Ex_Theo_A_th62] | 322 nM |
| GGAUAGGAUAGAGGAUAUGGAGAACACAAAAGUGACUUGUUGUGUUUAUCCAUAGGGAGUGAUGUUCCAGAAGGCUGUCCUAUCG [MatMod 24 - Jieux - Exclusion - FMN B] | 156 nM |
| GGGCGCGGCGCGGCCGCCACUGCGCCUGGGUGCUCGCCGAGUGAUGUUCGUCGGCGGUUGGGUGGCAGGACCGGGUGCCGGCCCG [BDazzled - #17 SS Tryptophan B] | 457 nM |
| GCGGACAUUCGCAGUGAUGUUGCGACGGAAGGAGCGGAUGAAAAUCCAGGUAGGUCGCCGACAAAAUUAAUUUUAAUGUGUUCGC [#03 K4 Arginine A Same State] | 324 nM |
| CUUGUACAUGCCGAGGUAGGUGCGGGUUAGCGAGGACCGGUACGGCCGCCACUCGCCAAGUGAUGUUUGGUCCUUUGGAUCGGCA | 183 nM |
| AAAGGCAUAGCCCGAGUGAUGUUCGACGAUACCAGCCUCGAUAGAGGCCCUUGGCAGCGUAAAUGAUCAUGAAGCCAAGGAAUAA [whbob_Ex_Theo_A_th68] | 422 nM |
| GGCAGUGAUGUUGCCAGUGGCAGAUGCGAAGGAGCGUGGUGAGACACAGGUAGGUCGCGCAUUGAAAUUGCUGUCACUAAAAUGC [#3] | 261 nM |
| GUAGACGUACCUUCAGUGAUGUUGAAGGAUACCAGAUGUUACCACAUCCCUUGGCAGCCUUGGGAUAACAGUGAGUUGGAAUAUG [Usrite] | 150 nM |
